Overview of reported pIC50 across a group of molecules:
Target: STS steroid sulfatase enzyme isolated from a human placenta (Homo sapiens)
Construct: human placenta was stripped from membranes and homogenized in ice-cold Tris-HCl buffer pH 7.4
Sequence (P08842 22-583): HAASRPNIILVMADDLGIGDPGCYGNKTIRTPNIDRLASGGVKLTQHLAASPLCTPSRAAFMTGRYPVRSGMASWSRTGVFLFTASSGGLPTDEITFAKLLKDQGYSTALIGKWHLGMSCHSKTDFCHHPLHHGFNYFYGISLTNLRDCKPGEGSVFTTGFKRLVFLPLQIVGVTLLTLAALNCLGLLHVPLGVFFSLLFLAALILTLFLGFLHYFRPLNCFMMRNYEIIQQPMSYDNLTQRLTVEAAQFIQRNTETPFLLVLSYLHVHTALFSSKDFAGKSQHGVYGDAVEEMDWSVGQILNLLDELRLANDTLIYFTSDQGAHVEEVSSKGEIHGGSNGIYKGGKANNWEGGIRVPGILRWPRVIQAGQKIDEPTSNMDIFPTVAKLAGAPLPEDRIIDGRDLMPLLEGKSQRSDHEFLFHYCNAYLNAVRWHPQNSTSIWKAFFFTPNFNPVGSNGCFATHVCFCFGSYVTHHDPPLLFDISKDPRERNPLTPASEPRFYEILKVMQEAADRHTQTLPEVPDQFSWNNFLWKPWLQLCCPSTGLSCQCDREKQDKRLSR
Assay: STS steroid sulfatase enzymatic assay with nitrophenyl sulfate (NPS)
Settings: NPS substrate, pH 7.25, 60 minutes, p-nitrophenol at 405 nm, read-out: IC50 (ability to inhibit steroid sulfatase activity)
Value format note: pIC50 is -log10 of concentration (mol/L); just state the number.

entry_smiles=NS(=O)(=O)Oc1ccc(-c2cn(-c3cccc(C(F)(F)F)c3)nn2)cc1 assay_system="STS steroid sulfatase enzyme isolated from a human placenta (Homo sapiens)" quantity=pIC50 endpoint_result=6.74

Give the measured pIC50 of NS(=O)(=O)Oc1ccc(-c2cn(-c3cc(C(F)(F)F)cc(C(F)(F)F)c3)nn2)cc1 . 6.09

Give the measured pIC50 of NS(=O)(=O)Oc1ccc(-c2cn(-c3ccc(OC(F)(F)F)cc3)nn2)cc1 . 6.62

Give the measured pIC50 of NS(=O)(=O)Oc1ccc(-c2cn(-c3cc(F)cc(F)c3)nn2)cc1 . 7.44

Values were extracted from patent US11939303B2.
